- TARGET DESC: T1, GST-MPP1 PDZ domain fusion protein (UniProt Q00013 67-152)
- T1 construct: domain: PDZ domain 1 (of 1); AA numbers count on the GenBank entry; also called 55 Kd erythrocyte membrane protein; not shown: glutathione-S transferase (GST) as encoded by vector pGEX-3X (Pharmacia)
- T1 sequence: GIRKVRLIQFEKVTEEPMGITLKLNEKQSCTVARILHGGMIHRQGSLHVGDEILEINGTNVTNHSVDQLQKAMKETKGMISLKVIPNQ
- PROCEDURE TEXT: A/G plate assay (TABLE 2)
No end group written: not given here. *: point of attachment. Biotin = O=C1N[C@H]2[C@H](CS[C@H]2CCCCC(=O)*)N1
METRIC: binding result

Biotin-QFMTADETRNLQNVDMKIGV [CD44 C-terminal PL peptide AA9L]	binds
Biotin-ARKANMKGSYSLVEAQKSKV [VCAM1 C-terminal PL peptide AA17L]	binds
Biotin-SSAKSSNKNKKNKDKEYYV [Neurexin C-terminal PL peptide AA38L]	binds
